target: T1, human CD33 antigen (human, UniProt P20138 18-259, limits assumed); assay: SPR (Biacore T200), 37 C, scFv-Fc, 0 uM MTX
T1 construct: whole entry named; also called Siglec-3
T1 sequence (P20138 18-259 limits assumed): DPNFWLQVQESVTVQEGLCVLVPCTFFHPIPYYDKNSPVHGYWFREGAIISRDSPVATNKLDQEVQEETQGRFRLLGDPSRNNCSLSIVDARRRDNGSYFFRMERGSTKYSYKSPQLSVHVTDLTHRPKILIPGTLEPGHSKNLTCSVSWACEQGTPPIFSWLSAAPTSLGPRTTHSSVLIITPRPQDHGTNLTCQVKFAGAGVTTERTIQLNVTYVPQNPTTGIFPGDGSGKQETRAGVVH
reported endpoint: kon (M⁻¹ s⁻¹)

binder	reported endpoint	numeric readout
P03_A01 scFv-Fc fusion (scFv, V domains shown, Tested as scFv-Fc fusion) VH: QVQLVESGGGLVQAGGSLRLSCAASRRSSRSWAMHWVRQAPGKGLEWVAVISYDGRLKYYADSVKGRFTISRDNAEYLVYLQMNSLRAEDTAVYYCAAETGSVGLDYWGQGTLVTVSS VL: DIQMTQSPSSLSASVGDRVTITCRASQGISTYLNWYQQKPGKAPKLLIYGATSLESGVPSRFSGSGSGTDFTLTISSLQPEDFATYYCQQGYSQGTFGQGTKVEIK	kon	50000
P01_F05 scFv-Fc fusion (scFv, V domains shown, Tested as scFv-Fc fusion) VH: QVQLVESGGGLVQAGGSLRLSCAASRRSSRSWAMHWVRQAPGKGLEWVAVISYDGRLKYYADSVKGRFTISRDNAEYLVYLQMNSLRAEDTAVYYCAAGPDRWAGYDAFDVWGQGTLVTVSS VL: DIQMTQSPSSLSASVGDRVTITCRASQTINTHLNWYQQKPGKAPKLLIYGASNLQGGVPSRFSGSGSGTDFTLTISSLQPEDFATYYCQQSYSTPLTFGQGTKVEIK	kon	71000
P02_E08 scFv-Fc fusion (scFv, V domains shown, Tested as scFv-Fc fusion) VH: QVQLVESGGGLVQAGGSLRLSCAASRRSSRSWAMHWVRQAPGKGLEWVAVISYDGRLKYYADSVKGRFTISRDNAEYLVYLQMNSLRAEDTAVYYCAASDYDGGGLFDLWGQGTLVTVSS VL: QSVLTQPPSASGTPGQRVTISCSGSNSNIGDNYVHWYQQLPGTAPKLLIYMNNQRPSGVPDRFSGSKSGTSASLAISGLRSEDEADYYCATWDDSLSGVVFGTGTKLTVL	kon	47000
P02_E11 scFv-Fc fusion (scFv, V domains shown, Tested as scFv-Fc fusion) VH: QVQLVESGGGLVQAGGSLRLSCAASRRSSRSWAMHWVRQAPGKGLEWVAVISYDGRLKYYADSVKGRFTISRDNAEYLVYLQMNSLRAEDTAVYYCAAEASTDNGLDYWGQGTLVTVSS VL: DIQMTQSPSSLSASVGDRVTITCRASQTISRHLNWYQQKPGKAPKLLIYSASSLASGVPSRFSGSGSGTDFTLTISSLQPEDFATYYCQQSHSAGTFGQGTKVEIK	kon	58000
P01_B02 scFv-Fc fusion (scFv, V domains shown, Tested as scFv-Fc fusion) VH: QVQLVESGGGLVQAGGSLRLSCAASRRSSRSWAMHWVRQAPGKGLEWVAVISYDGRLKYYADSVKGRFTISRDNAEYLVYLQMNSLRAEDTAVYYCAAADWYSGGGDALDIWGQGTLVTVSS VL: DIQMTQSPSSLSASVGDRVTITCRASQTIYNYLNWYQQKPGKAPKLLIYGASNLQSGVPSRFSGSGSGTDFTLTISSLQPEDFATYYCQQTYSSPTFGQGTKVEIK	kon	140000
